Origin of measurements: patent US5082772A

System name: DAOC synthase (Streptomyces clavuligerus, UniProt P18548)
Sequence (P18548 whole entry): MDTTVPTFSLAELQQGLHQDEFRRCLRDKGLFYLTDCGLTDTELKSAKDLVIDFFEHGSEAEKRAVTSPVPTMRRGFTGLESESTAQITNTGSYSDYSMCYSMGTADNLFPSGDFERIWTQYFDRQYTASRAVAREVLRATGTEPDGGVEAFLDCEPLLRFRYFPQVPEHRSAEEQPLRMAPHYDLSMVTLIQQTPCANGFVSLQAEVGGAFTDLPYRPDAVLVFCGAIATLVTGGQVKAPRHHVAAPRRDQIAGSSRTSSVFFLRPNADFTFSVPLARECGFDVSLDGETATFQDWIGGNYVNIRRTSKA
Protocol notes: DAOC synthase activity assay: effect of metal chelators, sulfhydryl reagents and other inhibitors
Format: biochemical
Reported conditions: metal ions: order Zn2+ > Co2+ > Ni2+
Parameter measured: inhibition of DAOC synthase activity (in words)

[Co+2] [cobaltous]	inhibited
[Ni+2] [nickel]	inhibited
[Zn+2] [zinc]	inhibited
